Origin of measurements: the Human Domainome abundance scans (Beltran et al. 2025)

Kindly state abundance fitness for each of the entries shown.
B1: Proto-oncogene vav, residues 782 to 842; numbered along this chain, P15498 (parent)
chain: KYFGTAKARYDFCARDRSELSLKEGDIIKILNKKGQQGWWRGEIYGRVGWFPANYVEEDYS

# Variants of: B1
# TEST: abundance fitness (aPCA) (normalised: wild type 0, dead -1); higher = more abundant; growth selection in yeast, the domain comes from the species named
# CONDITION_CONTEXT: Homo sapiens
Enter the number alone.

(Q) Fill in the blank: the reported abundance fitness of `W39Q` is ____.
(A) -0.317

(Q) Value lookup for abundance fitness; key = `V48C`
(A) -0.194

(Q) Fill in: abundance fitness of `G25N` is ___
(A) -0.675

(Q) Which abundance fitness value belongs to `K34I` ?
(A) -0.424

(Q) So what does the record say about abundance fitness for `F3C` ?
(A) -0.105

(Q) Which abundance fitness reading was recorded for the variant `D16Q` ?
(A) -0.108

(Q) What measured abundance fitness goes with `G38H` ?
(A) -0.418

(Q) Would you mind telling me what abundance fitness value was observed for `N54P` ?
(A) -0.29

(Q) Item under review: `N54D` . Reported abundance fitness?
(A) 0.064

(Q) Give its abundance fitness value. Item: `I27A`
(A) -0.331

(Q) Entry under review: `W50S` . Reported abundance fitness?
(A) -0.584

(Q) Record request: abundance fitness value, item `G46E`
(A) -0.311

(Q) Can you share its abundance fitness? I mean this variant: `A8R`
(A) -0.903

(Q) // lookup abundance fitness for `Y55K`
(A) -0.388

(Q) Given the entry `I44T` , report its measured abundance fitness.
(A) -0.027

(Q) Given the variant `S61W` , what is its reported abundance fitness?
(A) -0.084

(Q) Which measured abundance fitness value corresponds to `D16G` ?
(A) -0.11

(Q) Give its abundance fitness value. Item: `W50I`
(A) -0.739

(Q) What abundance fitness value was documented for this variant, `I30A` ?
(A) -0.552

(Q) Looking for the measured abundance fitness of `V56Y` , can you help?
(A) -0.325

(Q) Data request, read-out abundance fitness, for `V48W`
(A) -0.491

(Q) Need abundance fitness, item `Q36E`
(A) -0.005

(Q) Field request: abundance fitness | item: `T5E`
(A) -0.25

(Q) Requested field: abundance fitness. Item: `R9T`
(A) -0.086

(Q) # input variant: `P52K` ; wanted: its abundance fitness
(A) -0.498

(Q) Item under review: `E57K` . Reported abundance fitness?
(A) -0.313

(Q) Query (variant): `E43F` ; field requested: abundance fitness
(A) -0.825

(Q) I have this variant here, `F51N` , and I need its recorded abundance fitness.
(A) -0.489

(Q) Suppose we examine the variant `E24N` ; what abundance fitness value has been reported?
(A) -0.118

(Q) Field request: abundance fitness | item: `N54V`
(A) -0.098

(Q) abundance fitness lookup needed for `C13G` , thanks.
(A) -0.285

(Q) Bench note: what abundance fitness did `I30R` show?
(A) -0.634

(Q) Reported abundance fitness for `Q36K` : what is it?
(A) 0.132

(Q) Which abundance fitness reading was recorded for the variant `K1V` ?
(A) -0.241

(Q) Consider the variant shown here: `N54A` What is its recorded abundance fitness?
(A) 0.051

(Q) Please look up its abundance fitness: `G49Q`
(A) -0.838

(Q) Record request: abundance fitness value, item `N54Q`
(A) -0.201

(Q) Value lookup for abundance fitness; key = `F12C`
(A) -0.83

(Q) Looking for the measured abundance fitness of `K34N` , can you help?
(A) 0.068

(Q) What value of abundance fitness has been recorded for this entry: `E57V`
(A) -0.001

(Q) Data request, read-out abundance fitness, for `L22V`
(A) -0.332

(Q) What does the record list as abundance fitness for `D11G` ?
(A) -0.258

(Q) Name the reported abundance fitness value associated with the variant `D16L`
(A) -0.418

(Q) If you can, please state the reported abundance fitness value of `K7A` .
(A) -0.475

(Q) Using the record for `K33D` , report its abundance fitness.
(A) -0.743

(Q) // query abundance fitness value for entry `R47Q`
(A) -0.065

(Q) Which abundance fitness value is on record for `K7S` ?
(A) -0.381

(Q) What abundance fitness value was documented for this variant, `G35M` ?
(A) -0.324

(Q) Fill in: abundance fitness of `K23L` is ___
(A) -0.585

(Q) May I ask what abundance fitness has been recorded for `A14T` ?
(A) -0.54

(Q) Look at this variant and give its reported abundance fitness. `Y45K`
(A) 0.115

(Q) Given the entry `K34M` , report its measured abundance fitness.
(A) -0.22

(Q) abundance fitness lookup needed for `F12H` , thanks.
(A) -0.029

(Q) For the variant shown here, `S21T` , give the reported abundance fitness.
(A) -0.265

(Q) Consider the variant `W40K` and give its measured abundance fitness.
(A) -0.362

(Q) What abundance fitness value was documented for this variant, `L31H` ?
(A) -0.285

(Q) Returns the measured abundance fitness for the input variant. Input: `S21R`
(A) -0.742

(Q) # get_value(readout='abundance fitness', item= `G49F` )
(A) -0.87

(Q) Give its abundance fitness value. Item: `G42L`
(A) -0.788

(Q) Please look up its abundance fitness: `L31K`
(A) -0.392

(Q) Dear colleague, I am looking for the recorded abundance fitness of the following variant: `R15K`
(A) -0.169

(Q) Record request: abundance fitness value, item `K34Q`
(A) 0.031

(Q) Reported abundance fitness, variant `N32M` : ____
(A) -0.242

(Q) Look at this variant and give its reported abundance fitness. `A53P`
(A) -0.226

(Q) What value of abundance fitness has been reported for the following variant? `F3N`
(A) -0.173

(Q) Recorded abundance fitness of `D16M` , please.
(A) -0.499

(Q) Given the entry `Y2C` , report its measured abundance fitness.
(A) -0.229

(Q) What does the record list as abundance fitness for `S61R` ?
(A) -0.011

(Q) Which value of abundance fitness has been reported for `E24G` in the records?
(A) -0.262

(Q) Given the entry `E19L` , report its measured abundance fitness.
(A) -0.593
